- MEASURED_TARGET: KMT9 (Homo sapiens, UniProt Q9Y5N5)
- Sequence (Q9Y5N5 1-214): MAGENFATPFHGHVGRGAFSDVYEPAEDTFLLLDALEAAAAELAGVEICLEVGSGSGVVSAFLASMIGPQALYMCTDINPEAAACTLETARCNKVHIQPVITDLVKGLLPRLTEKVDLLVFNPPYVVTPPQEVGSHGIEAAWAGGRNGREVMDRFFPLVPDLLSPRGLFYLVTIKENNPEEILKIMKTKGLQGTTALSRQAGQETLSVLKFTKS
- Sequence (Q9UI30 1-120 isoform Q9UI30-2 partner): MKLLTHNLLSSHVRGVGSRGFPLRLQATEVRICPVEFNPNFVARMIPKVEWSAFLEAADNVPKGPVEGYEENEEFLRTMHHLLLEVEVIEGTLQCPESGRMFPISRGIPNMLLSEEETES
- PROCEDURE_DETAILS: Microscale thermophoresis (MST) KMT9 binding
- CONDITION_INFO: His-tag labelled KMT9 20 nM; read-out: MST (Kd)
pKd: −log10 of the molar value.
OUTCOME_MEASURE: pKd

input: Give the reported pKd for this compound. CNc1ncnc2c1ccn2[C@@H]1C[C@H](c2cn[nH]c2)[C@@H](O)[C@H]1O [Compound 657]
output: < 6.00

input: # return recorded pKd for entry Nc1cccc([C@H]2C[C@@H](n3ccc4c(N)ncnc43)[C@H](O)[C@@H]2O)c1 [Compound 410]
output: < 6.00

input: Give the reported pKd for this compound. COc1cc(OC)cc([C@H]2C[C@@H](n3cc(-c4ccn(Cc5ccccc5)n4)c4c(N)nc(Cl)nc43)[C@H](O)[C@@H]2O)c1 [Compound 679]
output: 6.00 to 7.00

input: Please supply the value of reported pKd for the item Nc1nc(Cl)nc2c1ccn2[C@@H]1C[C@H](c2cccc(OC(F)(F)F)c2)[C@@H](O)[C@H]1O [Compound 668]
output: 6.00 to 7.00

input: Provide one value: measured pKd of Cn1cc(Cl)c(-c2cn([C@@H]3C[C@H](c4cccc(CN5CCC5)c4)[C@@H](O)[C@H]3O)c3nc(Cl)nc(N)c23)n1 [Compound 675]
output: ≥ 8.00

input: // fetch pKd given entry CC(=O)CN1CCC([C@H]2C[C@@H](n3cc(-c4nc(Cc5ccccc5)cs4)c4c(N)nc(Cl)nc43)[C@H](O)[C@@H]2O)CC1 [Compound 510]
output: 7.00 to 8.00

input: Quickly give me recorded pKd for Nc1nc(Cl)nc2c1ccn2[C@@H]1C[C@H](c2cn[nH]c2)[C@@H](O)[C@H]1O [Compound 582]
output: 6.00 to 7.00

input: Please give the documented pKd of Nc1nc(Cl)nc2c1c(-c1nc(Cc3ccccc3)cs1)cn2[C@@H]1C[C@H](C2CCN(Cc3ccncc3)CC2)[C@@H](O)[C@H]1O [Compound 527]
output: 7.00 to 8.00

input: Given COc1cc(-c2cnsc2)cc([C@H]2C[C@@H](n3ccc4c(N)nc(Cl)nc43)[C@H](O)[C@@H]2O)c1 [Compound 667] , respond with its pKd.
output: 7.00 to 8.00

input: Indicate its recorded pKd; the compound in question is Nc1nc(Cl)nc2c1ccn2[C@@H]1C[C@H](c2cccc(CN3CCC3)c2)[C@@H](O)[C@H]1O [Compound 672]
output: 7.00 to 8.00

input: Read the entry COc1cc(OC)cc([C@H]2C[C@@H](n3cc(-c4ccn(C)n4)c4c(N)nc(Cl)nc43)[C@H](O)[C@@H]2O)c1 [Compound 678] and write its reported pKd.
output: 6.00 to 7.00

input: Tell me measured pKd for COc1cccc([C@H]2C[C@@H](n3cc(Br)c4c(N)nc(Cl)nc43)[C@H](O)[C@@H]2O)c1 [Compound 669] please.
output: 7.00 to 8.00

input: Tell me its pKd given Nc1nc(Cl)nc2c1c(-c1nc(Cc3ccccc3)cs1)cn2[C@@H]1C[C@H](C2CCN(C[C@H]3CCOC3)CC2)[C@@H](O)[C@H]1O [Compound 521R] as the entry.
output: 7.00 to 8.00

input: Give pKd for the following compound: NCc1cccc([C@H]2C[C@@H](n3cc(Br)c4c(N)nc(Cl)nc43)[C@H](O)[C@@H]2O)c1 [Compound 393]
output: ≥ 8.00

input: Provide one value: measured pKd of CN(CCCNCCc1ccc(F)cc1)C[C@H]1C[C@@H](n2cc(-c3ccn(C)n3)c3c(N)nc(Cl)nc32)[C@H](O)[C@@H]1O [Compound 645]
output: 7.00 to 8.00

input: Using known records, supply pKd for CNc1nc(Cl)nc2c1ccn2[C@@H]1C[C@H](c2cn[nH]c2)[C@@H](O)[C@H]1O [Compound 583]
output: < 6.00

input: Read off the recorded pKd for Nc1nc(Cl)nc2c1c(Br)cn2[C@@H]1CC(CNCCCNCCc2ccc(F)cc2)[C@@H](O)[C@H]1O (mixture of isomers) [Compound 547]
output: ≥ 8.00

input: Return value of pKd for input CNc1nc(Cl)nc2c1ccn2[C@@H]1C[C@H](c2ccccc2)[C@@H](O)[C@H]1O [Compound 596] , no commentary.
output: 6.00 to 7.00

input: Please indicate pKd recorded for COc1cc(CN)cc([C@H]2C[C@@H](n3ccc4c(N)nc(Cl)nc43)[C@H](O)[C@@H]2O)c1 [Compound 665]
output: ≥ 8.00

input: State its pKd: CN1CC=C([C@H]2C[C@@H](n3cc(-c4nccs4)c4c(N)nc(Cl)nc43)[C@H](O)[C@@H]2O)CC1 [Compound 493]
output: ≥ 8.00

input: Quickly give me recorded pKd for Nc1ncnc2c1ccn2[C@@H]1C[C@H](c2cccc(Cl)c2)[C@@H](O)[C@H]1O [Compound 407]
output: < 6.00

###

- MEASURED_TARGET: KMT9 (Homo sapiens)
- Sequence (Q9Y5N5 1-214): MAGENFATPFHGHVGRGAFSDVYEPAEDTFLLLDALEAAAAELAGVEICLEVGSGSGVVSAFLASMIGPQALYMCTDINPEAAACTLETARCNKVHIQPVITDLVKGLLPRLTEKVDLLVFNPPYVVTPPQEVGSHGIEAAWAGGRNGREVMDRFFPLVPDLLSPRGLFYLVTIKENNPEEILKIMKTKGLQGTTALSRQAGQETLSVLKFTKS
- Sequence (Q9UI30 1-120 isoform Q9UI30-2 partner): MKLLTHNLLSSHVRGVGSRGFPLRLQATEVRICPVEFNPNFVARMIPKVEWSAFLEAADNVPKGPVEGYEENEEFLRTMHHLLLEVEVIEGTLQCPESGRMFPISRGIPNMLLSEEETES
- PROCEDURE_DETAILS: Microscale thermophoresis (MST) KMT9 binding
- CONDITION_INFO: microscale thermophoresis, His-tag labelled KMT9 (20 nM); read-out: MST
- Description: To determine the binding affinity of the compounds according to the present invention and KMT9, microscale thermophoresis (MST) analysis was performed with a NanoTemper Monolith NT.115 instrument (NanoTemper Technologies GmbH). KMT9 was labelled with a RED-Tris-NTA labelling kit (NanoTemper Technologies GmbH) based on the manufacturer's instructions. Buffer including 25 mM HEPES (pH 7.5), 100 mM NaCl, 1 mM DTT and 0.05% Tween was used for the reaction buffer. […]
Would you kindly list Kd for each of these compounds?

input: Read the entry CNc1ncnc2c1ccn2[C@@H]1C[C@H](CN2CCCCC23CCNC3)[C@@H](O)[C@H]1O (stereo partly drawn) [448 (320)] and write its reported Kd.
output: > 1000 nM

input: Check the records and state Kd for O[C@@H]1[C@@H](CNCCCNCCc2ccccc2)C[C@@H](n2cc(-c3nc(Oc4ccccc4)cs3)c3cncnc32)[C@@H]1O [Compound 639]
output: > 1000 nM

input: Respond only with Kd recorded for Nc1ncnc2c1c(Br)cn2[C@@H]1C[C@H](CN2CC(CNCCc3ccccc3)C2)[C@@H](O)[C@H]1O [484 (358)]
output: 10 to 100 nM

input: Name the recorded Kd of the item CN(C)C(=O)[C@H]1C[C@@H](n2cc3c4c(ncnc42)NCCC3)[C@H](O)[C@@H]1O [Compound 625] in your answer.
output: > 1000 nM

input: Indicate its recorded Kd; the compound in question is CS(=O)(=O)n1ccc(-c2cn([C@@H]3C[C@H](CNCCCNCCc4ccccc4)[C@@H](O)[C@H]3O)c3ncncc23)n1 [Compound 640]
output: > 1000 nM

input: Identify the reported Kd for the following entry. CCc1cn([C@@H]2C[C@H](CNCCCNCCc3ccccc3)[C@@H](O)[C@H]2O)c2ncnc(Cl)c12 [Compound 632]
output: > 1000 nM

input: Note Kd for the compound shown: CNc1ncnc2c1ccn2[C@@H]1C[C@H](CNCC2CNCCO2)[C@@H](O)[C@H]1O (mixture of isomers) [435 (307)]
output: > 1000 nM

input: Look up and report measured Kd for this entry: O[C@@H]1[C@@H](CNCCCNCCc2ccccc2)C[C@@H](n2cc3c4c(ncnc42)NCCC3)[C@@H]1O [Compound 628]
output: 100 to 1000 nM

input: Quote Kd reported for CNc1ncnc2c1ccn2[C@@H]1C[C@H](C(=O)NCCCNCCc2ccc(Oc3ccc(Cl)cc3)c(F)c2)[C@@H](O)[C@H]1O [355 (259)] please.
output: 100 to 1000 nM

input: Could you please provide reported Kd for Nc1ncnc2c1c(Br)cn2[C@@H]1C[C@H](CNCCCNCCc2ccccc2F)[C@@H](O)[C@H]1O [338 (242)] ? Thanks!
output: 10 to 100 nM

input: For the compound Nc1ncnc2c1c(Br)cn2[C@@H]1C[C@H](CNCCCNCCc2ccc(F)cc2F)[C@@H](O)[C@H]1O [334 (238)] , report Kd.
output: 10 to 100 nM

input: Provide measured Kd value, entry: O[C@@H]1[C@@H](CNCCCNCCc2ccccc2)C[C@@H](n2cc(-c3nc(Cc4ccccc4)cs3)c3cncnc32)[C@@H]1O [Compound 613]
output: > 1000 nM
